ATTRIBUTE MEASURED: Ki (nM)
All answers are understood in nM, so give the number only.

Specify the recorded Ki for CCCCCCC(C)(C)c1ccc2c(c1)OC(C)(C)[C@@H]1CC=C(CO)C[C@@H]21 [JWH-051] , system: UniProtKB Q9QZN9.
Sequence (Q9QZN9 whole entry): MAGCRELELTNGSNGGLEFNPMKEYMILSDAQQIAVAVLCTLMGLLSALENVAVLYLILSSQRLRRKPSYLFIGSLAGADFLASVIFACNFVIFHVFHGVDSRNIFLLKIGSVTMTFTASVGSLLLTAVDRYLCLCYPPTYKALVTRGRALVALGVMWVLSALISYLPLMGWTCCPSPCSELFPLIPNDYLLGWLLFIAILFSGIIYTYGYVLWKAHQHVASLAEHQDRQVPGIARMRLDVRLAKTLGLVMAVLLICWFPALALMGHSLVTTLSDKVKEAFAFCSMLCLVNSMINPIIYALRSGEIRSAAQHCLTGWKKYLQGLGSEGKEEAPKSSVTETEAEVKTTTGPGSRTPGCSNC
3.16

Consider the compound CCCCCCC(C)(C)c1ccc([C@H]2C[C@@H](O)CC[C@@H]2CCCO)c(O)c1 [CP-56667 [(+)-AC],XV] tested on UniProtKB Q9QZN9; state its Ki.
0.64

For UniProtKB Q9QZN9, give the measured Ki of the entry `CCCn1c(C)c(C(=O)c2cccc3ccccc23)c2ccccc21`
269

Just for reference, BindingDB's records for PubMed 10688601 is where these values come from.
